# System tested: UniProt Q13315
# Sequence (Q13315 whole entry): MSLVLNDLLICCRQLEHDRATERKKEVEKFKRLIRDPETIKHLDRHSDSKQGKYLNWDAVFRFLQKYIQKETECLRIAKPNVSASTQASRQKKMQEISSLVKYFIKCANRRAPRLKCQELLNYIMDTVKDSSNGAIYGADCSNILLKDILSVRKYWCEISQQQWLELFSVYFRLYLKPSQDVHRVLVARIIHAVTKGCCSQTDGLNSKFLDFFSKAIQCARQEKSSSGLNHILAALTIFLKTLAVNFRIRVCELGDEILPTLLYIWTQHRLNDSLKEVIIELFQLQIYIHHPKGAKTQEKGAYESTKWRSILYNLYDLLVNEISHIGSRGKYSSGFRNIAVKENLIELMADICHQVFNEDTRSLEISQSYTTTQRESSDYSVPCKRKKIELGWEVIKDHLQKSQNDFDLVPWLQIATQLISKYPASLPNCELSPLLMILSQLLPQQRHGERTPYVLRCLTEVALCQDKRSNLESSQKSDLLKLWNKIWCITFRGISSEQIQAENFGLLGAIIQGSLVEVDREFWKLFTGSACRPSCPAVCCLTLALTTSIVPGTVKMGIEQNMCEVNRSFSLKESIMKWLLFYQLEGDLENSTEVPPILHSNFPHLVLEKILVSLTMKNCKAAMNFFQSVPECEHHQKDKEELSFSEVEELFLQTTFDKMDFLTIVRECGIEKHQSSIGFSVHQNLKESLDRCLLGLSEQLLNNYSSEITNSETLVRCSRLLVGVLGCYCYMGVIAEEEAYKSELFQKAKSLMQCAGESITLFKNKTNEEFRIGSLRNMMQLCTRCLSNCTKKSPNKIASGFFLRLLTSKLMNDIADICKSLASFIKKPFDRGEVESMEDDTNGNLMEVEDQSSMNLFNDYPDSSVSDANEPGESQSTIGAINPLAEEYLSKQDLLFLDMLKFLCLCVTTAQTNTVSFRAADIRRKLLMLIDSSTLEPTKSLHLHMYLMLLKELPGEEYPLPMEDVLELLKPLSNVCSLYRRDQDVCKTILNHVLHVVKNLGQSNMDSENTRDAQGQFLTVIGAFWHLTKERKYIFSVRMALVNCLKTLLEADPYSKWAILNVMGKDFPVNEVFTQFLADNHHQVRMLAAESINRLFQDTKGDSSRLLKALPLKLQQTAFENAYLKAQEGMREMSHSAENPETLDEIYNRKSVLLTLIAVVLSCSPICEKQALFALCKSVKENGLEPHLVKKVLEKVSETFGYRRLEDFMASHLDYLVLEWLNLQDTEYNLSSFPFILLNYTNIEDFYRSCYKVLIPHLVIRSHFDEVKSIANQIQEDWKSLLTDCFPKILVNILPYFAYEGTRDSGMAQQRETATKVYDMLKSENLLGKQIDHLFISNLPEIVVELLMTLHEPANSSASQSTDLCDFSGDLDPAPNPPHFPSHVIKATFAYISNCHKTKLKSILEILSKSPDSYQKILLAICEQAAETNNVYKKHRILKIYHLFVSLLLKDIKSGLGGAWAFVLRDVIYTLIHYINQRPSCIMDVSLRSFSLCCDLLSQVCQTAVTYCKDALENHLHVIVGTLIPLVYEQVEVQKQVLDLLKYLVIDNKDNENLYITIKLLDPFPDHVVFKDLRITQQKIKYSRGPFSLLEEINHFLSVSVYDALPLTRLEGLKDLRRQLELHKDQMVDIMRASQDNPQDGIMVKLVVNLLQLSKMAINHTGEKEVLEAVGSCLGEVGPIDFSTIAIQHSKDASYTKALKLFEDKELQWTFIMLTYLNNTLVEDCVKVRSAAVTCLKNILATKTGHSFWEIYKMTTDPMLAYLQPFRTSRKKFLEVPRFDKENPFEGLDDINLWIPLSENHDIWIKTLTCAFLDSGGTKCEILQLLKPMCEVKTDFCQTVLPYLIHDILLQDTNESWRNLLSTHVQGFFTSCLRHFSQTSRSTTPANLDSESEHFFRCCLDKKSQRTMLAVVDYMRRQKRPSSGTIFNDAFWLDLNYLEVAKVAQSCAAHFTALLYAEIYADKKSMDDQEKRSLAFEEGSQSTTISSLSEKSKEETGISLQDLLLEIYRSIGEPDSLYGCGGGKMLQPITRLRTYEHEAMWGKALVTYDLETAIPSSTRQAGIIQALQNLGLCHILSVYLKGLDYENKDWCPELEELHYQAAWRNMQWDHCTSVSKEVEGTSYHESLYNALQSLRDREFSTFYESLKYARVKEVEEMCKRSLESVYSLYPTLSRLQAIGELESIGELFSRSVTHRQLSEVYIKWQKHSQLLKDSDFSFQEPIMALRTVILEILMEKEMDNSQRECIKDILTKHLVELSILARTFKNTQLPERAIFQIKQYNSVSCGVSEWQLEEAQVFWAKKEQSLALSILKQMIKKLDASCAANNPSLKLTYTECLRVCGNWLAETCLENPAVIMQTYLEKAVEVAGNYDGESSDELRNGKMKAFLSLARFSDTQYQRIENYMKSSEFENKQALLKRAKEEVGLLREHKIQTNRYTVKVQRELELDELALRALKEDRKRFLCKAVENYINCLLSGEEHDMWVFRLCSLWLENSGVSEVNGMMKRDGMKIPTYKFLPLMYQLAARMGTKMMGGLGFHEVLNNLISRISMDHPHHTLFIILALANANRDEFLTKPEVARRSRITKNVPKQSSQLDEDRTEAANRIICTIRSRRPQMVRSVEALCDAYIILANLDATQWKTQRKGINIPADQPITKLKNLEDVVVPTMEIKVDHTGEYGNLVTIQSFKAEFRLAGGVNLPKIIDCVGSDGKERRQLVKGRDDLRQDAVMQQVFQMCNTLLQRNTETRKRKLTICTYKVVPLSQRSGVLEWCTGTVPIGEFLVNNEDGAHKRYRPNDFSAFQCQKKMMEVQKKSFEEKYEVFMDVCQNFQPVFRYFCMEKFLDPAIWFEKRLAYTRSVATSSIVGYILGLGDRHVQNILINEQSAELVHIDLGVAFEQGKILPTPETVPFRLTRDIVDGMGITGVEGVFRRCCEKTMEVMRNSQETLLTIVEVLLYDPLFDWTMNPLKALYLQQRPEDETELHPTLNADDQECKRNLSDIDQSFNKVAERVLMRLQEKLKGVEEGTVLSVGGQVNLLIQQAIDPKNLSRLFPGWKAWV
# Test method notes: ATM in Cell Western Assay (pKAP1 in etoposide-treated MCF-7 cells)
# Assay type: cell-based
# Stated conditions: MCF-7 cells, etoposide 100 μM, 1 hr, pKAP1 readout
Where a name gives a salt, the structure may show the parent alone.
Quantity measured: IC50

# example entries with known answers
- Compound: "CN(C)CCCOc1ncc(-c2ccc3ncc4c(c3c2)C2(CC2)C(=O)N4C)cc1NS(=O)(=O)N(C)C"
  Measured value: "1 to 100 nM"
- Compound: "COCCS(=O)(=O)Nc1cc(-c2ccc3ncc4c(c3c2)C2(CCC2)C(=O)N4C)cnc1OCCCN(C)C"
  Measured value: "1 to 100 nM"
- Compound: "CN1C(=O)C2(CC2)c2c1cnc1ccc(-c3cncc(C(C)(C)O)c3)cc21"
  Measured value: "> 100 nM"
- Compound: "CN(C)CCCOc1ncc(-c2ccc3ncc4c(c3c2)C2(CCC2)C(=O)N4C)cc1NS(=O)(=O)c1ccc(F)c(C#N)c1 [Example 159, hydrochloride]"
  Measured value: "0.5 to 1 nM"
- Compound: "CN1C(=O)C2(CC2)c2c1cnc1ccc(-c3cnc(Cl)c(C(C)(C)O)c3)cc21"
  Measured value: "> 100 nM"
- Compound: "CN1C(=O)C2(CCC2)c2c1cnc1ccc(-c3cnc(OCCCN4CC5CC(C4)O5)c(NS(C)(=O)=O)c3)cc21"
  Measured value: "> 100 nM"

query: Please report the recorded IC50 for `CN(C)CCCOc1ncc(-c2ccc3ncc4c(c3c2)C2(CC2)C(=O)N4C)cc1Cl` .
result: > 100 nM
